Kindly state growth for each of the entries shown.
# Tested on: NCI-H460 lung
# test: NCI-60 one-dose screen, 48 h (100 = growth as untreated, 0 = no growth, -100 = all killed)
# test_conditions: 10 µM unless noted
# Description: Growth inhibition of the NCI-H460 human Non-Small Cell Lung tumor cell line is measured as a screen for anti-cancer activity. Cells are grown in 96 well plates and exposed to the test compound for 48 hours. Compounds are tested at a single concentration, which is 10^-5 M for most compounds. The reported endpoint is percent growth (GI% or GIPRCNT), where numbers from 0 - 100% represent growth inhibition, and numbers from -100% - 0 represent cell death. […]
This is part of a sample that, as a whole, favours compounds with a hit. Of some 83,000 tested, about 20% had one in any assay.
Give bare numbers, in %.

Please review the following examples before continuing.
smiles_str=Cc1ncc(C(=O)Nc2ccc(CN3CCN(C)CC3)c(C(F)(F)F)c2)cc1C#Cc1cnc(N)c2ncccc12 measurement_type=growth readout_value=27.1
smiles_str=CN1CCN(CCOc2ccc(-c3cnc4c(-c5ccc(F)cc5)cnn4c3)cc2)CC1 measurement_type=growth readout_value=-1.23
smiles_str=O=c1cc(-c2ccccc2)[nH]c2ncc(-c3ccc(F)cc3)n12 measurement_type=growth readout_value=47.4
smiles_str=Nc1c(C(=O)Nc2cccc(Cl)c2)sc2nc3c(cc12)CCCC3 measurement_type=growth readout_value=100
smiles_str=O=C1c2cccc3cccc(c23)C(=O)N1C/C=C/c1ccc2c3c(cccc13)C(=O)N(CCO)C2=O measurement_type=growth readout_value=72.6

Below is a list of compounds. For each, state its recorded growth.
1. COC(=O)CCC/C=C\C[C@H]1C=CC(=O)/C1=C/C[C@@H](O)C/C=C\CC(F)(F)F
2. CCN1CCN(C(=O)[C@]23CC[C@@H](C)[C@H](C)[C@@H]2C2=CC[C@@H]4[C@@]5(C)C/C(=C/c6cccnc6)C(=O)C(C)(C)[C@@H]5CC[C@@]4(C)[C@]2(C)CC3)CC1
3. COc1ccc(-c2n[nH]c(=O)c3nc(NC(=S)Nc4ccc(Oc5ccccc5)cc4)sc23)cc1

Solution:
-47.2
7.51
101
